tgt: T1, Human Nrp2-b1b2 (Neuropilin-2 domains b1b2, residues 276–595) (human, UniProt O60462 276-595)
T1 sequence (looked up): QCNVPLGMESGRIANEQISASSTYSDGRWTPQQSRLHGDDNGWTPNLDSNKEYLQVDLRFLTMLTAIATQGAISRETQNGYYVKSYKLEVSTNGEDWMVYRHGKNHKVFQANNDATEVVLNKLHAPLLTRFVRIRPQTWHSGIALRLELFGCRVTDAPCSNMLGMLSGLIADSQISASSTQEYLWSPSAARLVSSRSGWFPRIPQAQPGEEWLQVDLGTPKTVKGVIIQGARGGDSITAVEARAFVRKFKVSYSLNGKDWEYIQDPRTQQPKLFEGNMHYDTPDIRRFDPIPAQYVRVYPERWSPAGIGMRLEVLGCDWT
experiment: plate competition assay with AP-tagged ligand
observable: IC50 (µM)
Report as a plain number; the unit µM is understood.

Exercise: Would you mind telling me what IC50 value was observed for ATWLPPR [ATWLPPR, an optimized peptide inhibitor of Nrp] ?
Key: 10
